Where do the numbers come from? From patent US12065505B2.

Assay explanation: SPR (Biacore) Protein A mAb capture, Compound A injected
Conditions used: 37° C., binding to Compound A, apparent, for rank ordering only
Observation type: Kd

- Molecule: "26D5-075017-343-F04-mAb: human IgG1f/kappa mAb; VH SEQ ID NO: 60, VL SEQ ID NO: 91 (antibody, V domains shown) VH: EVQLVESGGGLIQPGGSLRLSCAASGFTVSSNAMSWVRQAPGKGLEWVSFIYPGGRTYYADSVKGRFTISRDNSKNTLYLQMNSLRAEDTAVYYCARAGFGGGDYWGQGTLVTVSS VL: DIQMTQSPSSVSASVGDRVTITCRASQGISSNLAWWQQKPGKAPKLLIYAASSLQSGVPSRFSGSGSGTDFTLTISSLQPEDFATYYCQQANSFPLTFGGGTKVEIK"
  Observation type: "Kd"
  Value measured: "0.00017 s⁻¹"
- Molecule: "25D5-296-A07-mAb: human IgG1f/kappa mAb; VH SEQ ID NO: 60, VL SEQ ID NO: 93 (antibody, V domains shown) VH: EVQLVESGGGLIQPGGSLRLSCAASGFTVSSNAMSWVRQAPGKGLEWVSFIYPGGRTYYADSVKGRFTISRDNSKNTLYLQMNSLRAEDTAVYYCARAGFGGGDYWGQGTLVTVSS VL: DIQMTQSPSSVSASVGDRVTITCRASQGISSWLAWYQQKPGKAPKLLIYAASSLQSGVPSRFSGSGSGTDFTLTISSLQPEDFATYYCQQHNSFPLTFGGGTKVEIK"
  Observation type: "Kd"
  Value measured: "0.00027 s⁻¹"
- Molecule: "26D5-296-G03-mAb: human IgG1f/kappa mAb; VH SEQ ID NO: 72, VL SEQ ID NO: 88 (antibody, V domains shown) VH: EVQLVESGGGLIQPGGSLRLSCAASGFQVSSNYMSWVRQAPGKGLEWVSFIYPGGRTYYADSVKGRFTISRDNSKNTLYLQMNSLRAEDTAVYYCARAGFGGGDYWGQGTLVTVSS VL: DIQMTQSPSSVSASVGDRVTITCRASQGISSNLAWYQQKPGKAPKLLIYAASSLQSGVPSRFSGSGSGTDFTLTISSLQPEDFATYYCQQANSFPLTFGGGTKVEIK"
  Observation type: "Kd"
  Value measured: "0.00058 s⁻¹"
- Molecule: "26D5-75768-348-A10-mAb: human IgG1f/kappa mAb; VH SEQ ID NO: 56, VL SEQ ID NO: 89 (antibody, V domains shown) VH: EVQLVESGGGLIQPGGSLRLSCAASGFTVSSNAVSIVRQAPGKGLEWVAYIYPGGRTYYADSVKGRFTISRDNSKNTLYLQMNSLRAEDTAVYYCTIGGFGGGDYWGQGTLVTVSS VL: DIQMTQSPSSVSASVGDRVTITCRASQGISSNNQWYQQKPGKAPKLLIYYASSLQSGVPSRFSGSGSGTDFTLTISSLQPEDFATYYCQQGNEFPLTFGGGTKVEIK"
  Observation type: "Kd"
  Value measured: "<0.00041 s⁻¹"
- Molecule: "26D5-296-F07-mAb: human IgG1f/kappa mAb; VH SEQ ID NO: 71, VL SEQ ID NO: 94 (antibody, V domains shown) VH: EVQLVESGGGLIQPGGSLRLSCAASGFTVSSNYMSWVRQAPGKGLEWVSFIYSGGRTYYADSVKGRFTISRDNSKNTLYLQMNSLRAEDTAVYYCARAGFGGGDYWGQGTLVTVSS VL: DIQMTQSPSSVSASVGDRVTITCRASQYISSNLAWYQQKPGKAPKLLIYAASSLQSGVPSRFSGSGSGTDFTLTISSLQPEDFATYYCQQANSFPLTFGGGTKVEIK"
  Observation type: "Kd"
  Value measured: "0.00044 s⁻¹"
- Molecule: "26D5-296-C07-mAb: human IgG1f/kappa mAb; VH SEQ ID NO: 77, VL SEQ ID NO: 94 (antibody, V domains shown) VH: EVQLVESGGGLIQPGGSLRLSCAASGITVSSNYMSWVRQAPGKGLEWVSFIYSGGRTYYADSVKGRFTISRDNSKNTLYLQMNSLRAEDTAVYYCARGGFGGGDYWGQGTLVTVSS VL: DIQMTQSPSSVSASVGDRVTITCRASQYISSNLAWYQQKPGKAPKLLIYAASSLQSGVPSRFSGSGSGTDFTLTISSLQPEDFATYYCQQANSFPLTFGGGTKVEIK"
  Observation type: "Kd"
  Value measured: "0.0014 s⁻¹"
- Molecule: "26D5-75214-343-F06-mAb: human IgG1f/kappa mAb; VH SEQ ID NO: 53, VL SEQ ID NO: 85 (antibody, V domains shown) VH: EVQLVESGGGLIQPGGSLRLSCAASGFTVSSNAMSWVRQAPGKGLEWVSFIYPGGRTYYADSVKGRFTISRDNSKNTLYLQMNSLRAEDTAVYYCARAGFGGPDYWGQGTLVTVSS VL: DIQMTQSPSSVSASVGDRVTITCRASQGISSNLAWYQQKPGKAPKLLIYAASSLQSGVPSRFSGSGSGTDFTLTISSLQPEDFATYYCQQANEFPLTFGGGTKVEIK"
  Observation type: "Kd"
  Value measured: "<5e-05 s⁻¹"

For 26D5-296-B07-mAb: human IgG1f/kappa mAb; VH SEQ ID NO: 68, VL SEQ ID NO: 93 (antibody, V domains shown) VH: EVQLVESGGGLIQPGGSLRLSCAASGFQVSSNAMSWVRQAPGKGLEWVSFIYSGGRTYYADSVKGRFTISRDNSKNTLYLQMNSLRAEDTAVYYCARAGFGGGDYWGQGTLVTVSS VL: DIQMTQSPSSVSASVGDRVTITCRASQGISSWLAWYQQKPGKAPKLLIYAASSLQSGVPSRFSGSGSGTDFTLTISSLQPEDFATYYCQQHNSFPLTFGGGTKVEIK the molecule record lists Kd as 0.00042 s⁻¹
